B1: Tesmin, residues 368 to 403; numbered along this chain, Q9Y4I5 (parent)
chain: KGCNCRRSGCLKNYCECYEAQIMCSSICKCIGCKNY

variants of: B1; assay: abundance fitness (aPCA) (normalised: wild type 0, dead -1); higher = more abundant; growth selection in yeast, the domain comes from the species named; settings: Homo sapiens
Entries get a class label from measured abundance fitness. See ranges: class A = under -0.3, class B = from -0.3 up to -0.08, class C = -0.08 and over

>>> class_name("KGCNCRRSQCLKNYCECYEAQIMCSSICKCIGCKNY [G9Q]")
"class A"
>>> class_name("KGCICRRSGCLKNYCECYEAQIMCSSICKCIGCKNY [N4I]")
"class A"
>>> class_name("KGCNCRRSGCLKNYCECYEAQIMCSSICKCIGCCNY [K34C]")
"class C"
>>> class_name("KGCNGRRSGCLKNYCECYEAQIMCSSICKCIGCKNY [C5G]")
"class A"
>>> class_name("KGCNCRRSGCLKNYCECYEAQIMCSSICKCIGDKNY [C33D]")
"class C"
>>> class_name("KGCNCRRSGCLKNYCECYESQIMCSSICKCIGCKNY [A20S]")
"class C"
>>> class_name("KGCNCRRSGLLKNYCECYEAQIMCSSICKCIGCKNY [C10L]")
"class A"
>>> class_name("KGCNCRRSGCLKNCCECYEAQIMCSSICKCIGCKNY [Y14C]")
"class C"
>>> class_name("KGCNCRRSGCLKNYCECYMAQIMCSSICKCIGCKNY [E19M]")
"class B"
>>> class_name("KGCNCRRSGCLKNYCECYEAHIMCSSICKCIGCKNY [Q21H]")
"class B"
>>> class_name("KGCNCRRSGCLKNYCECYEAQIMCTSICKCIGCKNY [S25T]")
"class B"
>>> class_name("KGCNCRRSGCLKNYCECYEAQIMCSSICKCIRCKNY [G32R]")
"class B"
>>> class_name("KGCNCRMSGCLKNYCECYEAQIMCSSICKCIGCKNY [R7M]")
"class C"
>>> class_name("KGCNCRRSGCLKNYCECYEKQIMCSSICKCIGCKNY [A20K]")
"class A"
>>> class_name("KGCNCRRSGCLKKYCECYEAQIMCSSICKCIGCKNY [N13K]")
"class C"
>>> class_name("KGCNCRRSGCLKNYCEYYEAQIMCSSICKCIGCKNY [C17Y]")
"class A"
>>> class_name("KGCNCRRSGCNKNYCECYEAQIMCSSICKCIGCKNY [L11N]")
"class B"
>>> class_name("KGCNCRRSGCLKGYCECYEAQIMCSSICKCIGCKNY [N13G]")
"class C"
>>> class_name("KGCNCVRSGCLKNYCECYEAQIMCSSICKCIGCKNY [R6V]")
"class C"
>>> class_name("KGCNCRRSGCLKNYCECYEAQIWCSSICKCIGCKNY [M23W]")
"class B"
>>> class_name("KGCNCRRSGCLKNYMECYEAQIMCSSICKCIGCKNY [C15M]")
"class A"
>>> class_name("KGCNCRRSGCLKNYCEMYEAQIMCSSICKCIGCKNY [C17M]")
"class A"
>>> class_name("KGCNCRRSGCLKNYCECYEAQKMCSSICKCIGCKNY [I22K]")
"class B"
>>> class_name("KGCNCRRSGCLKNYCECYEAQIMCSSICKCIGQKNY [C33Q]")
"class A"
>>> class_name("KGCNCRRSLCLKNYCECYEAQIMCSSICKCIGCKNY [G9L]")
"class A"
>>> class_name("KGCNCFRSGCLKNYCECYEAQIMCSSICKCIGCKNY [R6F]")
"class B"
>>> class_name("KGCNCRRSGCLKNYCECYEAQIMCSDICKCIGCKNY [S26D]")
"class B"
>>> class_name("KGCNCWRSGCLKNYCECYEAQIMCSSICKCIGCKNY [R6W]")
"class C"
>>> class_name("KGCNCRRSGCLKNYCECYEAAIMCSSICKCIGCKNY [Q21A]")
"class B"
>>> class_name("KGCNCRRIGCLKNYCECYEAQIMCSSICKCIGCKNY [S8I]")
"class C"
>>> class_name("KGCNCRYSGCLKNYCECYEAQIMCSSICKCIGCKNY [R7Y]")
"class C"
>>> class_name("KGCNCRESGCLKNYCECYEAQIMCSSICKCIGCKNY [R7E]")
"class C"
>>> class_name("KGCNCRRSGCLKNYCECIEAQIMCSSICKCIGCKNY [Y18I]")
"class A"
>>> class_name("KGCNCRRSACLKNYCECYEAQIMCSSICKCIGCKNY [G9A]")
"class A"
>>> class_name("KGCNCRRSGCLKNYCETYEAQIMCSSICKCIGCKNY [C17T]")
"class A"
>>> class_name("KGCNCRRSGCLKNQCECYEAQIMCSSICKCIGCKNY [Y14Q]")
"class C"
>>> class_name("KGCNQRRSGCLKNYCECYEAQIMCSSICKCIGCKNY [C5Q]")
"class A"
>>> class_name("KGCNCRRSGPLKNYCECYEAQIMCSSICKCIGCKNY [C10P]")
"class A"
>>> class_name("KGCNCRRSGCLKNYCECYDAQIMCSSICKCIGCKNY [E19D]")
"class B"
>>> class_name("KGCNCRRSGCLKNYCECYEAQIMCSSICKCIGGKNY [C33G]")
"class C"
>>> class_name("KGCNDRRSGCLKNYCECYEAQIMCSSICKCIGCKNY [C5D]")
"class A"
>>> class_name("KGCNCRRSGCLKNYCECYEAQIMCSSRCKCIGCKNY [I27R]")
"class C"
>>> class_name("KGCNCRRSTCLKNYCECYEAQIMCSSICKCIGCKNY [G9T]")
"class B"
>>> class_name("SGCNCRRSGCLKNYCECYEAQIMCSSICKCIGCKNY [K1S]")
"class A"
>>> class_name("KGCNCRRSGCLKNYCECYEAQIMCSSICKCISCKNY [G32S]")
"class B"
